# Tested on: Calu-3
# Assay Notes: cell viability relative to DMSO; higher = less toxic
# Experimental Conditions: 72 h; 100 nM
Recorded cell viability values for a group of compounds are listed next.
Return type: number; implicit unit %.

Worked cases, cell viability given:
Compound | Measurement
C=Cc1c(C)c2cc3nc(c(CC(=O)O)c4[n-]c(cc5nc(cc1[n-]2)C(C)=C5CC)c(C)c4C(=O)O)[C@@H](CCC(=O)O)[C@@H]3C.[Cu+2] [chlorophyllin-copper] | 104
CN1C(=O)C[C@@H](C(=O)N[C@@H](Cc2c[nH]cn2)C(=O)N2CCC[C@H]2C(N)=O)NC1=O [taltirelin] | 101
Cn1c(=O)cc(N2CCC[C@@H](N)C2)n(Cc2cc(F)ccc2C#N)c1=O [trelagliptin] | 105

Input line: # get_value(readout='cell viability', item= CCC(C)(C)c1ccc(CC(C)CN2C[C@@H](C)O[C@@H](C)C2)cc1 (some centres not stated) [amorolfine] )
Output line: 92.9

Input line: Reported cell viability for O=C1CCC[C@@H]2[C@H]3C[C@@H](CN12)[C@@H]1CCCCN1C3 [lupanine] : what is it?
Output line: 99.5

Input line: Any idea what cell viability was measured for CCN(CC)CCCCC1CCN(CC(=O)N2c3ccccc3C(=O)Nc3cccnc32)CC1 [AQ-RA741] ?
Output line: 108

Input line: I am curious: what cell viability value has been reported for c1cc(CN2CCCCC2)cc(OCCCNc2nc3ccccc3s2)c1 [zolantidine] ?
Output line: 108

Input line: What does the data say about its cell viability? Entry: Cc1c(-c2ccnn2C)cc(C(=O)NCc2ccc(S(C)(=O)=O)cn2)c(=O)n1-c1cccc(C(F)(F)F)c1 [AZD9668]
Output line: 99.9

Input line: # cell viability lookup, item CCOc1ccc(Cc2nccc3cc(OCC)c(OCC)cc23)cc1OCC [ethaverine]
Output line: 101

Input line: I have this compound here, NNc1nncc2ccccc12 [hydralazine] , and I need its recorded cell viability.
Output line: 89

Input line: Endpoint output: cell viability of O=C1c2ccccc2C(=O)C1c1ccc(Cl)cc1 [chlorindione] . Value?
Output line: 99.5

====

Recorded cell viability by entry
# System: U2OS
# Assay Notes: cell viability relative to DMSO; higher = less toxic
# Experimental Conditions: 72 h; 1 nM
Answer with a number only, understood to be in %.

Reference set (3 entries):
Molecule | System Tested | Property Measured | Measurement
COc1cc(C(=O)NC2CCCNC2)cc(OC)c1OC (centres undefined) [troxipide] | U2OS | cell viability | 106
COc1cccc(CN(C(=O)CC(C)(C)C)[C@H]2C[C@@H](C(=O)N3CCNCC3)N(Cc3ccc4c(c3)OCO4)C2)c1 | U2OS | cell viability | 95.2
CN1c2cc3c(cc2N=C(c2ccc(C(=O)O)cc2)c2ccccc21)C(C)(C)CCC3(C)C [LE-135] | U2OS | cell viability | 101

Kindly review the next molecule as well.
Input line: Query (molecule): O=C1NCCN1CCN1CCC(c2cn(-c3ccc(F)cc3)c3ccc(Cl)cc23)CC1 [sertindole] ; field requested: cell viability
Output line: 93.8

====

# Test system: HepG2
# Assay Notes: cell viability relative to DMSO; higher = less toxic
# Experimental Conditions: 72 h; 10000 nM
cell viability overview
Answer in %, number only, no unit symbol.

Compound | Units Of Measure | cell viability
CCN(CC)c1ccc(/C=N/NC(=O)c2ccc(O)cc2)cc1 | % | 83.4

Input line: Look at this compound and give its reported cell viability. `O=C(NCCCNc1nc(Nc2cccc(NC(=O)N3CCCC3)c2)ncc1I)c1cccs1`
Output line: 34.7

Input line: Query (compound): CCCCC(=O)O[C@]1(C(=O)CO)CC[C@H]2[C@@H]3CCC4=CC(=O)CC[C@]4(C)[C@H]3[C@@H](O)C[C@@]21C [hydrocortisone-valerate] ; field requested: cell viability
Output line: 103

Input line: Quick one: cell viability of `CN1C/C=C/CCOc2cccc(c2)-c2ccnc(n2)Nc2cccc(c2)C1` ?
Output line: 3.2

====

# Tested on: HepG2
# Assay Notes: cell viability relative to DMSO; higher = less toxic
# Experimental Conditions: 72 h; 10000 nM
Exam item: assign condition met to entries whose cell viability is below 90% and condition not met to entries at or above 90%. Note that a value of exactly 90% receives condition not met.

Molecule | Label Class
CCOCC(O)COc1ccc(NC(=O)CC[S+](C)C)cc1 (centres undefined) | condition not met
CN(C)CCOC1=Cc2ccccc2Sc2ccc(Cl)cc21 [zotepine] | condition met
Cc1cc(OCCCS(C)(=O)=O)cc(C)c1-c1cccc(COc2ccc3c(c2)OC[C@H]3CC(=O)O)c1 | condition not met

Input line: Does `CCCN(CCC)S(=O)(=O)c1ccc(C(=O)O)cc1` have cell viability strictly under 90%?
Output line: condition not met

Input line: Determine whether this molecule shows cell viability lower than 90% (ties excluded): `Clc1ccc(Nc2nnc(Cc3ccncc3)c3ccccc23)cc1`
Output line: condition met

Input line: Hi there! Is cell viability for `O=c1c(O)c(-c2ccc(O)c(O)c2)oc2cc(O)cc(O)c12` below 90%, do you know?
Output line: condition met

Input line: Dear colleague, could you confirm whether cell viability of COc1cc(N)c(Cl)cc1C(=O)N[C@@H]1CCN(CCCOc2ccc(F)cc2)C[C@@H]1OC (racemic) [cisapride] falls below 90%? Thanks.
Output line: condition not met

Input line: Could you please tell me whether cell viability recorded for `CCN[C@@H](C)Cc1cccc(C(F)(F)F)c1` is less than 90%?
Output line: condition not met

Input line: Hi there! Is cell viability for `O=C1NC(=O)c2c1c1c3ccccc3n3c1c1c2c2ccccc2n1C1CCC3O1` below 90%, do you know?
Output line: condition met

====

# Tested on: Caco-2
# Assay Notes: cell viability relative to DMSO; higher = less toxic
# Experimental Conditions: 72 h; 1 nM
Readings of cell viability for the listed compounds
Express your answer in %, writing the number without its unit.

Compound | cell viability (%)
CCN(CC)CCCCC1CCN(CC(=O)N2c3ccccc3C(=O)Nc3cccnc32)CC1 [AQ-RA741] | 101
CS(=O)(=O)c1ccc(-c2cnc(N)c(C(=O)Nc3ccccc3)n2)cc1 [VE-821] | 102
O=C(N[C@@H]1CC[C@@H](c2cccc(F)c2F)CN(CC(F)(F)F)C1=O)N1CCC(n2c(=O)[nH]c3ncccc32)CC1 [telcagepant] | 104
COc1nc(C)cnc1NS(=O)(=O)c1cccnc1-c1ccc(-c2nnco2)cc1 [zibotentan] | 104
O=C(O)Cn1c(C(=O)Nc2nc(-c3ccccc3Cl)cs2)cc2ccccc21 | 103
COCC(=O)Nc1c(I)c(C(=O)NCC(O)CO)c(I)c(C(=O)N(C)CC(O)CO)c1I (configuration not stated) [iopromide] | 93.6
CC/C=C(\C(=O)N[C@@H]1C(=O)N2C(C(=O)OCOC(=O)C(C)(C)C)=C(COC(N)=O)CS[C@H]12)c1csc(N)n1 [cefcapene-pivoxil] | 104
NNc1nncc2ccccc12 [hydralazine] | 104
C[C@H]1[C@H](C)CC[C@]2(C(=O)O)CC[C@]3(C)C(=CC[C@@H]4[C@@]5(C)C[C@@H](O)[C@H](O)C(C)(C)[C@@H]5CC[C@]43C)[C@H]12 [corosolic-acid] | 107
CCCc1ncc(C[n+]2ccccc2C)c(N)n1 [amprolium] | 112

Shift focus to the following entry.
Input line: For the compound CCCCc1ccc2[nH]c(NC(=O)OC)nc2c1 [parbendazole] , what cell viability is on record?
Output line: 104

====

Listed here: items and their measured drug sensitivity score.
# Test system: Caco-2
# Assay Notes: drug sensitivity score (DSS) for viability; higher = more toxic; extreme values may be limits of the assay
# Experimental Conditions: 72 h
A bare number is all that is needed in reply.

Example entries begin here.
Molecule | drug sensitivity score
O=C(O)CCCC[C@@H]1SC[C@@H]2NC(=O)N[C@@H]21 [biotin] | 0.1
C[C@H](Nc1ncnc2[nH]cnc12)c1cc2ccc(F)cc2nc1-c1ccccn1 [AMG319] | 0.2
Nc1ncnc2c1c(-c1ccc(Oc3ccccc3)cc1)nn2C1CCCC1 | 2.3
CC(C)C(=O)c1c(C(C)C)nn2ccccc12 [ibudilast] | 0
CC(=O)Oc1cc2c(s1)CCN(C(C(=O)C1CC1)c1ccccc1F)C2 (stereo unspecified) [prasugrel] | 0

Input line: GET /values?readout=drug sensitivity score&item= CCC(=O)OCC(=O)[C@@]1(OC(=O)CC)[C@@H](C)C[C@H]2[C@@H]3CCC4=CC(=O)C=C[C@]4(C)[C@@]3(F)[C@@H](O)C[C@@]21C [BETAMETHASONE 17,21-DIPROPIONATE]
Output line: 0

Input line: Please report the recorded drug sensitivity score for CC(=O)[C@H]1CC[C@H]2[C@@H]3CC[C@H]4C[C@H](O)CC[C@]4(C)[C@H]3CC[C@]12C [allopregnanolone] .
Output line: 0

Input line: What does the data say about its drug sensitivity score? Entry: CCOc1ccccc1-n1c(C(C)N2CCN(C(=O)COc3ccc(Cl)cc3)CC2)nc2ccccc2c1=O (stereo unspecified) [erastin]
Output line: 3.5

Input line: What does the data say about its drug sensitivity score? Entry: CC(C)NC[C@@H](C(=O)N1CCN(c2ncnc3c2[C@H](C)C[C@H]3O)CC1)c1ccc(Cl)cc1 [GDC-0068]
Output line: 3

Input line: Record request: drug sensitivity score value, item CC1(C)CC(=O)C(C2C3=C(CC(C)(C)CC3=O)Oc3ccccc32)C(=O)C1 (stereo unspecified)
Output line: 0

Input line: Query: drug sensitivity score; subject: Cc1nc(C#Cc2ccnc(Cl)c2)c(C)n1-c1ccc(F)cc1 [basimglurant]
Output line: 3

Input line: Given C/C(=C\c1csc(C)n1)[C@@H]1C[C@@H]2O[C@]2(C)CCC[C@H](C)[C@H](O)[C@@H](C)C(=O)C(C)(C)[C@@H](O)CC(=O)O1 [epothilone-B] , state its recorded drug sensitivity score.
Output line: 24

Input line: Name the recorded drug sensitivity score for Oc1cc2c(cc1O)[C@H]1c3ccccc3CN[C@@H]1CC2 (racemic) [dihydrexidine] .
Output line: 0

Input line: What does the data say about its drug sensitivity score? Entry: C#Cc1cncc([C@@H]2CCCN2C)c1 [altinicline]
Output line: 0

Input line: Which value of drug sensitivity score has been reported for C=C1C[C@@]2(O)O[C@@]3(C[C@H]2C(C)C)[C@@H](C)CC[C@@H]13 [curcumol] in the records?
Output line: 0
